- Test System: ROCK1 (Homo sapiens (Human))
- Sequence (Q13464 whole entry, species assumed): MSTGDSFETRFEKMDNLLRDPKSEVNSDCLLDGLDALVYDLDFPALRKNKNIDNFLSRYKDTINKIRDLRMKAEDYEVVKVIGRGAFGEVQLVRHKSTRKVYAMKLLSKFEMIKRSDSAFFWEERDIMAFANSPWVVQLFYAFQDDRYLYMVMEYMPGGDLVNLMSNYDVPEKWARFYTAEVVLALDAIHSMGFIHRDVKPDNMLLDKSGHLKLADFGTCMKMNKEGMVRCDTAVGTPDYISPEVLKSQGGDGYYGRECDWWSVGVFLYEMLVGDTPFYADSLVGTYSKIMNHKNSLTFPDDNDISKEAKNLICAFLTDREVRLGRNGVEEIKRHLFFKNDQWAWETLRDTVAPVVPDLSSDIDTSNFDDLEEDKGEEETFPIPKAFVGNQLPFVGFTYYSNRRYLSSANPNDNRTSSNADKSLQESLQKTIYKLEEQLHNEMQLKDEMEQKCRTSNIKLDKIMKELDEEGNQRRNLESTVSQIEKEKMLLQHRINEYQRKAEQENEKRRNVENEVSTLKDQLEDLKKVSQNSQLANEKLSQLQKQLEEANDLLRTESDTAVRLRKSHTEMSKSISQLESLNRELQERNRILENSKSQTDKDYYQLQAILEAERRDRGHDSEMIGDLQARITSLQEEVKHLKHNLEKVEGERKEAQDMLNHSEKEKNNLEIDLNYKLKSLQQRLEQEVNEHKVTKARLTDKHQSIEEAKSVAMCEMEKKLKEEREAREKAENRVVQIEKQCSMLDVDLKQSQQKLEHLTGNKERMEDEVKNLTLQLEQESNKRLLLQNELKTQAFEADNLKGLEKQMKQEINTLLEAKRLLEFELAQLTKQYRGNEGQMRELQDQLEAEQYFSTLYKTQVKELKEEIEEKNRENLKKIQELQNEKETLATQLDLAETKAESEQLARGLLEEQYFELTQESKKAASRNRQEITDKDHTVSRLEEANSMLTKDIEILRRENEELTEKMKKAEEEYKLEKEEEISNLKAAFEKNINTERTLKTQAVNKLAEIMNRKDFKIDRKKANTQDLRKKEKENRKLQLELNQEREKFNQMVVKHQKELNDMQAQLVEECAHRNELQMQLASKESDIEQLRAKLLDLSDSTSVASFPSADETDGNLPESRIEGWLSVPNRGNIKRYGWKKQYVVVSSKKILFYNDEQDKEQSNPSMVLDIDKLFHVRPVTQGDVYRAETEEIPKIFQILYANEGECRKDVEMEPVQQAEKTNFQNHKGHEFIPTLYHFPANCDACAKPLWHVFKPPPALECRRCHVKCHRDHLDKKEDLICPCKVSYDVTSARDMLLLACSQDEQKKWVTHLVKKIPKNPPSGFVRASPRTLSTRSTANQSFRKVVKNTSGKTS
- Test Method Notes: ROCK assay (LABCHIP peptide phosphorylation), ROCK1
- Assay type: biochemical
- Assay Context: 5 μM ATP, 1.5 μM peptide substrate; read-out: ROCK1 IC50
Value Kind: IC50

Solved cases (3 shown):
{"Compound": "O=C(Nc1ccc(-c2n[nH]c(=O)c3ccccc23)cc1)c1csc(-c2ccccc2)n1", "Endpoint Result": "1000 to 50000 nM"}
{"Compound": "Cc1oc2ccc(OCc3ccccc3)cc2c1C(=O)Nc1ccc(-c2n[nH]c(=O)c3ccccc23)cc1", "Endpoint Result": "101 to 1000 nM"}
{"Compound": "Cc1csc(C(=O)Nc2ccc(-c3n[nH]c(=O)c4ccccc34)cc2)n1", "Endpoint Result": "0.1 to 100 nM"}

## Input Record request: IC50 value, item Cn1nc(C(=O)Nc2ccc(-c3n[nH]c(=O)c4ccccc34)c(CO)c2)c2ccccc21
## Output 1000 to 50000 nM

## Input Record request: IC50 value, item O=C(Cc1ccc(-c2n[nH]c(=O)c3ccccc23)cc1)N1CCc2ccc(O[C@H]3CCOC3)cc21
## Output 0.1 to 100 nM

## Input Record request: IC50 value, item O=C(Nc1ccc(-c2n[nH]c(=O)c3ccccc23)cc1)c1ncn(-c2ccccn2)n1
## Output 101 to 1000 nM

## Input Record request: IC50 value, item O=C(Nc1ccc(-c2n[nH]c(=O)c3ccccc23)cc1)C1CC(c2cccc(Cl)c2F)=NO1 (centres unmarked)
## Output 1000 to 50000 nM

## Input Record request: IC50 value, item Cn1cc(C(=O)Nc2ccc(-c3n[nH]c(=O)c4ccccc34)cc2)cn1
## Output 101 to 1000 nM
